tested on: NCI-H226 (Mesothelioma); assay: Bliss excess, mean over the matrix (fraction); higher = more synergy;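 further: after 72 h of two-drug dosing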
readout: Bliss excess
Please state the value as a number alone, without comment.

Record request: Bliss excess value, item C=CCn1c(=O)c2cnc(Nc3ccc(N4CCN(C)CC4)cc3)nc2n1-c1cccc(C(C)(C)O)n1 [AZD1775] + O=C(c1cc(Cc2n[nH]c(=O)c3ccccc23)ccc1F)N1CCN(C(=O)C2CC2)CC1 [Olaparib] (first compound max 1 µM, partner max 10 µM)
-0.035

Also Cn1cnc2c(F)c(Nc3ccc(Br)cc3Cl)c(C(=O)NOCCO)cc21 [Selumetinib] + CC(C)n1c(=O)n(C)c2cnc3cc(F)c(-c4ccc(OCCCN5CCCCC5)nc4)cc3c21 [AZD1390] (first compound max 10 µM, 7x7, partner max 0.3 µM) , if possible.
-0.0344

Queued: C[C@@H](Nc1cc(F)cc(F)c1)c1cc(C(=O)N(C)C)cc2c(=O)cc(N3CCOCC3)oc12 [AZD8186] + C1CN(CCC1(C(=O)N[C@@H](CCO)C2=CC=C(C=C2)Cl)N)C3=NC=NC4=C3C=CN4 [AZD5363] (first compound max 10 µM, 7x7, partner max 10 µM)
-0.0272

What about NC1(C(=O)N[C@@H](CCO)c2ccc(Cl)cc2)CCN(c2ncnc3[nH]ccc23)CC1 [Capivasertib] + Cn1cnc2c(F)c(Nc3ccc(Br)cc3Cl)c(C(=O)NOCCO)cc21 [Selumetinib] (first compound max 10 µM, 7x7, partner max 10 µM) ?
-0.063

Another molecule to check: O=C(c1cc(Cc2n[nH]c(=O)c3ccccc23)ccc1F)N1CCN(C(=O)C2CC2)CC1 [Olaparib] + Cc1c2c(nn1C)CSCc1cc(n(C)n1)CSc1cc(c3ccccc3c1)OCCCc1c(C(=O)O)n(C)c3c-2c(Cl)ccc13 [AZD5991] (first compound max 10 µM, 7x7, partner max 1 µM)
-0.0583

Please answer likewise for COc1cccc(OCCCN)c1-c1cc(Nc2cnc(C#N)cn2)n[nH]1 [Prexasertib] + C[C@@H]1COCCN1C2=NC(=NC(=C2)C3(CC3)[S@](=N)(=O)C)C4=C5C=CNC5=NC=C4 [AZD6738] (first compound max 1 µM, 7x7, partner max 10 µM)
0.01

Entry to check: CCN(CCO)CCCOc1ccc2c(Nc3cc(CC(=O)Nc4cccc(F)c4)[nH]n3)ncnc2c1 [AZD2811] + C=CCn1c(=O)c2cnc(Nc3ccc(N4CCN(C)CC4)cc3)nc2n1-c1cccc(C(C)(C)O)n1 [AZD1775] (first compound max 1 µM, partner max 1 µM)
-0.0708

Same thing, different molecule: COc1nnc2ccc(N3CCC(c4ccc(OCCN5CCN(C)C(=O)[C@H]5C)cc4)CC3)nn12 [AZD5153] + C=CCn1c(=O)c2cnc(Nc3ccc(N4CCN(C)CC4)cc3)nc2n1-c1cccc(C(C)(C)O)n1 [AZD1775] (first compound max 1 µM, partner max 1 µM)
-0.0349

// next record C=CCn1c(=O)c2cnc(Nc3ccc(N4CCN(C)CC4)cc3)nc2n1-c1cccc(C(C)(C)O)n1 [AZD1775] + CCc1c2c(nc3ccc(O)cc13)-c1cc3c(c(=O)n1C2)COC(=O)[C@]3(O)CC [SN-38] (first compound max 1 µM, partner max 0.3 µM)
-0.0755

Entry to check: Cc1c2c(nn1C)CSCc1cc(n(C)n1)CSc1cc(c3ccccc3c1)OCCCc1c(C(=O)O)n(C)c3c-2c(Cl)ccc13 [AZD5991] + C[C@@H]1COCCN1C2=NC(=NC(=C2)C3(CC3)[S@](=N)(=O)C)C4=C5C=CNC5=NC=C4 [AZD6738] (first compound max 1 µM, 7x7, partner max 10 µM)
0.0298

Param item: Cc1nc(-c2cn3c(n2)-c2ccc(-c4cnn(C(C)(C)C(N)=O)c4)cc2OCC3)n(C(C)C)n1 [Taselisib] + O=C(Nc1ccc2[nH]nc(-c3ccncc3)c2c1)[C@@H]1CCN(CC(=O)N2CCN(c3ccc(-c4ncccn4)cc3)CC2)C1 [SCH772984] (first compound max 10 µM, 7x7, partner max 5 µM)
0.0164
